B1: TRIM15 (parent)
chain: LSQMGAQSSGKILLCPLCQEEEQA

Variants of: B1
test.method.notes: protein stability index of a GFP-peptide fusion (GPS, HEK-293T) (PSI 1-6); higher = more stable;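 further: lentivirally expressed fusions sorted by FACS into six bins by GFP to DsRed ratio, PSI derived from sequencing read proportions per bin multiplied by bin number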
applied.conditions: c terminus: a fixed tail appended
Label rule, in plain words: protein stability index of 4 and up is Met, under 4 is Not met.

[[record]]
mutation_string = "L14R"
group = "Met"

[[record]]
mutation_string = "S8F"
group = "Not met"

[[record]]
mutation_string = "L17W"
group = "Not met"

[[record]]
mutation_string = "G10M"
group = "Not met"

[[record]]
mutation_string = "L1K"
group = "Not met"

[[record]]
mutation_string = "Q19L"
group = "Not met"

[[record]]
mutation_string = "Q23I"
group = "Not met"

[[record]]
mutation_string = "E22T"
group = "Not met"

[[record]]
mutation_string = "C15H"
group = "Met"

[[record]]
mutation_string = "P16R"
group = "Not met"

[[record]]
mutation_string = "L13N"
group = "Met"

